Origin of values: patent US20180099931A1

- Measured Target: F508delCFTR (Homo sapiens, UniProt P13569, DEL508-508)
- Construct: expressed in transfected cells; host or cells: CFBE41o- human lung-derived epithelial cells (CFBE4lo-F508delCFTR-HRP), doxycycline-inducible
- Sequence (P13569 with tags, fused parts or gaps DEL508-508): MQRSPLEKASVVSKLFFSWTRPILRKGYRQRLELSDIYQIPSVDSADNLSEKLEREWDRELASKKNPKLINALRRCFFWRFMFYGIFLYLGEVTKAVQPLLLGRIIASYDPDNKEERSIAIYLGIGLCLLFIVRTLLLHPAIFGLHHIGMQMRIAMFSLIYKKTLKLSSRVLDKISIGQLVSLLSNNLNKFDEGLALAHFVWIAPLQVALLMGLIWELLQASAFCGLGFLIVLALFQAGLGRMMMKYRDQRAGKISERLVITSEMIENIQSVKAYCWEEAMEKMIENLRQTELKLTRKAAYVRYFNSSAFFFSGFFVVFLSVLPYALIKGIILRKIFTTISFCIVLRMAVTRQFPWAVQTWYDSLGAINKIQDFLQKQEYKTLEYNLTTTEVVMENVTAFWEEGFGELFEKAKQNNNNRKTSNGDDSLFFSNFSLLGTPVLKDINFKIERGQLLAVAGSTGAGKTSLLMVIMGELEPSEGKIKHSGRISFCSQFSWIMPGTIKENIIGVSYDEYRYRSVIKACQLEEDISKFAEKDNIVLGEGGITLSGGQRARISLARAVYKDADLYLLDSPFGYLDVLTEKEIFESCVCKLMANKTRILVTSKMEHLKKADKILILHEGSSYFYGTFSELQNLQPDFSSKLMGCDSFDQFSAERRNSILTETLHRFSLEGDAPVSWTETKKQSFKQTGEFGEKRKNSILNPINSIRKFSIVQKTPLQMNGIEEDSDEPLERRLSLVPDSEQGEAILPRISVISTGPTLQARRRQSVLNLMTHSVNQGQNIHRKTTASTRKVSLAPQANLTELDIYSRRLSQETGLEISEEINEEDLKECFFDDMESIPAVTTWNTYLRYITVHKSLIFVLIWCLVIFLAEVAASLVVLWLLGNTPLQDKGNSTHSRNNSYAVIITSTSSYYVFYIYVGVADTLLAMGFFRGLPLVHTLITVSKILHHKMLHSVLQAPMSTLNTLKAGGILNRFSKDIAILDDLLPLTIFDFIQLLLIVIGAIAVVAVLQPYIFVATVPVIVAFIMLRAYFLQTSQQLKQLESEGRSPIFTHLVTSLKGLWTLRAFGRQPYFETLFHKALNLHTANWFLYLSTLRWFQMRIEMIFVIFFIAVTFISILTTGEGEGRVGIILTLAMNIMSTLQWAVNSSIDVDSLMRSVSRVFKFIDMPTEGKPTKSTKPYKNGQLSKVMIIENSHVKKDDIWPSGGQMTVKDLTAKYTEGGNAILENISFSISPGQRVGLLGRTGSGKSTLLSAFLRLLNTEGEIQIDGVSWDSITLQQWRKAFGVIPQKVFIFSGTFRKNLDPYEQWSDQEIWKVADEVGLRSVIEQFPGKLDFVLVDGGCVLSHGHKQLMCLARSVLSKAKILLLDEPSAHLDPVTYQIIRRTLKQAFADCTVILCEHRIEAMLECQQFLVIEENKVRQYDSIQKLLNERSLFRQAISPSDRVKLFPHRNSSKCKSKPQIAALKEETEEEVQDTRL
- Assay Details: Cell Surface Expression-Horse Radish Peroxidase (CSE-HRP) Assay
- Format: cell-based
- Settings: CSE-HRP; with co-corrector (2 μM of 3-[(2R,4R)-4-({[1-(2,2-difluoro-1,3-benzodioxol-5-yl)cyclopropyl]carbonyl}amino)-7-methoxy-3,4-dihydro-2H-chromen-2-yl]benzoic acid); read-out: EC50 (with co-corrector)
- Description: Cell Surface Expression-Horse Radish Peroxidase (CSE-HRP) Assay The development was achieved by expressing the F508delCFTR mutation along with a horseradish peroxidase (HRP) in the fourth exofacial loop, and then measuring the HRP activity using luminescence readout from these cells, CFBE4lo-F508delCFTR-HRP, that were incubated overnight with the test corrector compounds, either without or with the co-corrector. […] The raw counts from the experiment were analyzed using Accelrys® Assay Explorer v3.3. […]
Value Kind: EC50

Completed entries (count: 3):
COc1ccc(C(C)(C)C)cc1CN[C@H]1[C@H](C(C)(C)C)[C@@H](C(=O)O)N(C(=O)C2CC2(C)C)[C@H]1c1ccccc1 (stereo partly shown) [II-309]: 1000 to 10000 nM
COc1ccc(C(C)C)cc1CN[C@@H]1[C@@H](C(C)(C)C)[C@H](C(=O)O)N(C(=O)OC(C)C)[C@@H]1c1ccccc1 (racemic) [II-44]: 1000 to 10000 nM
COc1ncc(Br)cc1CN[C@H]1[C@H](C(C)(C)C)[C@@H](C(=O)O)N(C(=O)[C@@H]2CCCCO2)[C@H]1c1ccccc1C [Example I-287]: < 1000 nM

Q. Bench note: what EC50 did COc1ccc(C(C)(C)C)cc1CN[C@H]1[C@H](C(C)(C)C)[C@@H](C(=O)O)N(C(=O)OCC(C)C)[C@H]1c1ccccc1 [II-264] show?
A. 1000 to 10000 nM

Q. Bench note: what EC50 did COc1ccc(C(F)(F)F)cc1CN[C@H]1[C@H](C(C)(C)C)[C@@H](C(=O)O)N(C(=O)C2CCCCC2)[C@H]1c1ccccc1F [II-260] show?
A. 1000 to 10000 nM

Q. Bench note: what EC50 did CC(C)(C)[C@H]1[C@H](NCc2cc(Cl)ccc2OC(F)F)[C@H](c2ccccc2)N(C(=O)C2CCCCC2)[C@@H]1C(=O)O [II-107] show?
A. 1000 to 10000 nM

Q. Bench note: what EC50 did COc1ccc(C(C)(C)C)cc1CN[C@H]1[C@H](C(C)(C)C)[C@@H](C(=O)O)N(C(=O)Cc2ccccc2Cl)[C@H]1c1ccccc1 [II-183] show?
A. < 1000 nM
